Reported values of pest or weed control at 4483.4 g/ha for individual entries
- Tested on: Turnip (TP)
- Measurement notes: Post-emergence herbicide test
- Type: in vivo, Brassica sp.
- Measurement conditions: Brassica rapa, post-emergence, 336 h; 4 lb/acre; two weeks after treatment
Field: numeric (%). Do not append units.

>>> assay_result("CCCC(C)c1nnc(NC(=O)NC)s1 (stereo not drawn) [Example 83]")
90
>>> assay_result("CCOC(=O)C(Sc1nnc(NC(=O)NC)s1)C(=O)OCC [Example 79]")
40
>>> assay_result("CNC(=O)Nc1nnc(SCCc2ccccc2)s1 [Example 53]")
90
>>> assay_result("CNC(=O)Nc1nnc(SCc2ccccc2)s1 [Example 46]")
100
>>> assay_result("CCCSc1nnc(N(C)C(=O)NC)s1 [Example 69]")
100

# context switch: different molecule, same pest or weed control at 4483.4 g/ha
Task: Give Turnip (TP) pest or weed control at 4483.4 g/ha for CNC(=O)N(C)c1nnc(C(F)(F)F)s1 [Example 36]
Output: 100
